ASSAY_SYSTEM: p38α (Homo sapiens, UniProt Q16539)
Construct: p38 MAP Kinases are recombinant human full-length proteins with an amino-terminal GST fusion; GST (N)
Sequence (Q16539 whole entry, the tested form may be a part): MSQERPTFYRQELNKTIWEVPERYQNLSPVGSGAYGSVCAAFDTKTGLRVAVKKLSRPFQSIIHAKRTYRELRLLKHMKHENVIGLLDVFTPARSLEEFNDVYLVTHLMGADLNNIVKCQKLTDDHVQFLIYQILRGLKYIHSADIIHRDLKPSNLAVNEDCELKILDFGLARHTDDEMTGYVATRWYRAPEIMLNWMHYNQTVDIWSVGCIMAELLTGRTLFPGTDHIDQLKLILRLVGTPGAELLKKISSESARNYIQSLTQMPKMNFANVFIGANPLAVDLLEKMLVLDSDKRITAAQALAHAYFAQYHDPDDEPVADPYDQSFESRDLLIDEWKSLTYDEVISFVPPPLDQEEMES
ASSAY_EXPLANATION: p38 MAP Kinase assay, ATF2 phosphorylation (ELISA)
STUDY_CONDITIONS: 40 μM ATP
OUTCOME_MEASURE: IC50 (nM)

C=CCNc1nccc(-c2c(-c3ccc(F)cc3)nc3occn23)n1 [XXIII]: 11.9
Fc1ccc(-c2nc3occn3c2-c2ccnc(N[C@@H]3CN4CCC3CC4)n2)c(Cl)c1 [CCXC]: 6.8

1 = C[C@H](O)CNc1nc(N)cc(-c2c(-c3ccc(F)cc3)nc3sccn23)n1 [CCXXV]
2 = Cc1ccccc1-c1nc2occn2c1-c1ccnc(NC2CCNCC2)n1 [CCCVIII]
Q: Compare 1 and 2 by numeric IC50 and name the larger one. Record your answer as the label of the chosen record.
A: 1

a = Fc1ccc(-c2nc3occn3c2-c2ccnc(NC3CCC3)n2)cc1 [XXIV]
b = Fc1ccc(-c2nc3sccn3c2-c2ccnc(NCCc3ccncc3)n2)cc1 [CCXVIII]
Q: Form: Entry with minimum IC50 (choose one): a / b Record your answer as the label of the chosen record.
A: b
(b: 5.87 nM, a: 15 nM)

###

ASSAY_SYSTEM: p38α (Homo sapiens)
Construct: p38 MAP Kinases are recombinant human full-length proteins with an amino-terminal GST fusion; GST (N)
ASSAY_EXPLANATION: p38 MAP Kinase assay, ATF2 phosphorylation (ELISA)
STUDY_CONDITIONS: 40 μM ATP
OUTCOME_MEASURE: IC50 (µM)

OC1CCN(c2nccc(-c3c(-c4ccc(F)cc4)nc4occn34)n2)CC1 [XCVIII]: 0.134
OCCCNc1nccc(-c2c(-c3ccc(F)cc3)nc3occn23)n1 [XXV]: 0.0215
CS(=O)(=O)N1CCC(Nc2nccc(-c3c(-c4ccc(F)cc4)nc4occn34)n2)CC1 [CCLXXIX]: 0.00071

P = Cc1cn2c(-c3ccnc(S(C)(=O)=O)n3)c(-c3ccc(F)cc3)nc2s1 [CLXXXVII]
Q = OCCN(Cc1ccccc1)c1nccc(-c2c(-c3ccc(F)cc3)nc3sccn23)n1 [CXCII]
Q: Form: Entry with minimum IC50 (choose one): P / Q Record your answer as the label of the chosen record.
A: Q

###

ASSAY_SYSTEM: p38α (Homo sapiens, UniProt Q16539)
Construct: p38 MAP Kinases are recombinant human full-length proteins with an amino-terminal GST fusion; GST (N)
ASSAY_EXPLANATION: p38 MAP Kinase assay, ATF2 phosphorylation (ELISA)
STUDY_CONDITIONS: 40 μM ATP
OUTCOME_MEASURE: IC50 (nM)

In the examples that follow, each entry is paired with its recorded IC50.
Fc1ccc(-c2nc3sccn3c2-c2ccnc(NCCN3CCOCC3)n2)cc1 [CCXLIX]: 31.6
C[C@@H](O)[C@@H](CO)Nc1nccc(-c2c(-c3ccc(F)cc3)nc3occn23)n1 [CVII]: 63.8
CC(C)[C@@H](Nc1nccc(-c2c(-c3ccc(F)cc3)nc3sccn23)n1)C(=O)O [CLXXIV]: 671
Clc1ccccc1-c1nc2occn2c1-c1ccnc(N[C@@H]2CN3CCC2CC3)n1 [CCXCI]: 11.2
O=C(Cc1csc2nc(-c3ccc(F)cc3)c(-c3ccnc(NCc4ccccc4)n3)n12)NCc1ccccc1 [CLXV]: 1000
C[C@H](O)CNc1nccc(-c2c(-c3ccc(F)cc3)nc3sccn23)n1 [CCXIV]: 12.1
Fc1ccc(-c2nc3occn3c2-c2ccnc(NC[C@@H]3CCCO3)n2)cc1 [XLII]: 80.8
CS(=O)(=O)N1CCC(Nc2nccc(-c3c(-c4cccc(C(F)(F)F)c4)nc4occn34)n2)CC1 [CCCXVI]: 0.9
Oc1cccc(C(O)CNc2nccc(-c3c(-c4ccc(F)cc4)nc4sccn34)n2)c1 (stereo not shown) [CCXLVI]: 3.06
Cc1ccccc1-c1nc2occn2c1-c1ccnc(NC2CCN(C(=O)OC(C)(C)C)CC2)n1 [CCLXXXVIII]: 4.8

a = OC(CNc1nccc(-c2c(-c3ccc(F)cc3)nc3sccn23)n1)COc1ccccc1 (stereo not shown) [CCLI]
b = c1ccc(CNc2nccc(-c3c(-c4ccccc4)nc4sccn34)n2)cc1 [CXXXI]
c = CS(=O)(=O)N1CCC(Nc2nccc(-c3c(-c4ccc(F)cc4)nc4sccn34)n2)CC1 [CCLXI]
Q: Sort low-to-high on IC50, please. Form field (ranking): labels in requested order.
A: c, a, b
(c: 1.31 nM, a: 14.3 nM, b: 28.5 nM)

A = O[C@H]1CCN(c2nccc(-c3c(-c4ccc(F)cc4)nc4occn34)n2)C1 [CII]
B = CC[C@H](C)C(Nc1nccc(-c2c(-c3ccc(F)cc3)nc3sccn23)n1)C(=O)OC (stereo partly shown) [CLXX]
Q: Compare A and B by numeric IC50 and name the larger one. Record your answer as the label of the chosen record.
A: A

###

ASSAY_SYSTEM: p38α (Homo sapiens, UniProt Q16539)
Construct: p38 MAP Kinases are recombinant human full-length proteins with an amino-terminal GST fusion; GST (N)
ASSAY_EXPLANATION: p38 MAP Kinase assay, ATF2 phosphorylation (ELISA)
STUDY_CONDITIONS: 40 μM ATP
Text: Compounds of the invention are screened for the ability to inhibit ATF2 phosphorylation by p38 MAP Kinase in vitro. […]
OUTCOME_MEASURE: IC50 (µM)

In the examples that follow, each entry is paired with its recorded IC50.
CC(C)(CO)CNc1nccc(-c2c(-c3ccc(F)cc3)nc3occn23)n1 [XXXIX]: 0.00525
CC(CO)Nc1nccc(-c2c(-c3ccc(F)cc3)nc3sccn23)n1 (centres unmarked) [CXCIII]: 0.00619
CCOc1nccc(-c2c(-c3ccc(F)cc3)nc3sccn23)n1 [CLI]: 0.122
Fc1ccc(-c2nc3occn3c2-c2ccnc(NCc3nc4ccccc4[nH]3)n2)cc1 [CXIV]: 0.183
CC(C)[C@H](CO)Nc1nccc(-c2c(-c3ccc(F)cc3)nc3occn23)n1 [CIII]: 0.00757
CC(C)[C@@H](CO)Nc1nccc(-c2c(-c3ccc(C(F)(F)F)cc3)nc3sccn23)n1 [CCII]: 0.924

P = Nc1ccc(CCNc2nccc(-c3c(-c4ccc(F)cc4)nc4sccn34)n2)cc1 [CCXLIII]
Q = Fc1ccc(-c2nc3sccn3c2-c2ccnc(NCc3ccccc3)n2)cc1 [CXLI]
R = CC[C@H](C)[C@@H](CO)Nc1nccc(-c2c(-c3ccc(F)cc3)nc3occn23)n1 [LXIV]
S = COc1cccc(-c2nc3sccn3c2-c2ccnc(NC(C)CO)n2)c1 (centres unmarked) [CXCV]
Q: Sort low-to-high on IC50, please. Form field (ranking): labels in requested order.
A: P, Q, S, R

A = CC(C)[C@H](CO)Nc1nccc(-c2c(-c3ccc(F)cc3)nc3sccn23)n1 [CCXXXII]
B = CCCNc1nccc(-c2c(-c3ccc(F)cc3)nc3sccn23)n1 [CCXVI]
C = Cc1ccc(CNc2nccc(-c3c(-c4ccc(F)cc4)nc4occn34)n2)o1 [XXXVI]
D = Cc1csc(Nc2nccc(-c3c(-c4ccc(F)cc4)nc4occn34)n2)n1 [LXXII]
E = Fc1ccc(-c2nc3occn3c2-c2ccnc(NCCCn3ccnc3)n2)cc1 [LVI]
Q: Rank by IC50 (largest to smallest). Form field (ranking): labels in requested order.
A: D, C, E, B, A
(D: 0.664 µM, C: 0.103 µM, E: 0.014 µM, B: 0.00468 µM, A: 0.00206 µM)

I = Fc1ccc(CCNc2nccc(-c3c(-c4ccc(F)cc4)nc4sccn34)n2)cc1 [CCXLVII]
II = CCOCCCNc1nc(N)cc(-c2c(-c3ccc(F)cc3)nc3sccn23)n1 [CCXXVI]
Q: Form: Entry with minimum IC50 (choose one): I / II Record your answer as the label of the chosen record.
A: I
(I: 0.00484 µM, II: 0.766 µM)

P = CC(=O)N1CCC(Nc2nccc(-c3c(-c4cccc(C(F)(F)F)c4)nc4occn34)n2)CC1 [CCCVI]
Q = CC(CO)CCNc1nccc(-c2c(-c3ccc(F)cc3)nc3occn23)n1 (centres unmarked) [XXXV]
Q: Compare P and Q by numeric IC50 and name the larger one. Record your answer as the label of the chosen record.
A: Q
(Q: 0.0179 µM, P: 0.0049 µM)

###

Overview of recorded pIC50 for various compounds
ASSAY_SYSTEM: p38α (Homo sapiens, UniProt Q16539)
Construct: p38 MAP Kinases are recombinant human full-length proteins with an amino-terminal GST fusion; GST (N)
ASSAY_EXPLANATION: p38 MAP Kinase assay, ATF2 phosphorylation (ELISA)
STUDY_CONDITIONS: 40 μM ATP
Notebook: values listed as pIC50 are -log10 of the concentration (mol/L).

In the examples that follow, each entry is paired with its recorded pIC50.
c1ccc(-c2nc3sccn3c2-c2ccncn2)cc1 [CLXVIII]: 5.84
CN1[C@@H]2CC[C@H]1C[C@@H](Nc1nccc(-c3c(-c4ccc(F)cc4F)nc4occn34)n1)C2 [CCCXII]: 8.59

# context switch: different compound, same pIC50
Q: Quick one: pIC50 of Fc1ccc(-c2nc3occn3c2-c2ccnc(N[C@H]3CN4CCC3CC4)n2)cc1 [LXXXVII] ?
A: 8.06
